Assay: total protein half-life in vivo (active degradation + dilution); higher = more stable protein
Conditions: E. coli NCM3722 delta-clpP; growth: N-lim chemostat; doubling time 6 h
Test Readout: total protein half-life in vivo (h)
Please give a number only; it is taken to be in h.

Polymer Sequence: MAQRVQLTATVSENQLGQRLDQALAEMFPDYSRSRIKEWILDQRVLVNGKVCDKPKEKVLGGEQVAINAEIEEEARFEPQDIPLDIVYEDEDIIIINKPRDLVVHPGAGNPDGTVLNALLHYYPPIADVPRAGIVHRLDKDTTGLMVVAKTVPAQTRLVESLQRREITREYEAVAIGHMTAGGTVDEPISRHPTKRTHMAVHPMGKPAVTHYRIMEHFRVHTRLRLRLETGRTHQIRVHMAHITHPLVGDPVYGGRPRPPKGASEAFISTLRKFDRQALHATMLRLYHPISGIEMEWHAPIPQDMVELIEVMRADFEEHKDEVDWL
Test Readout: total protein half-life in vivo
Reading Unit: h
Readout Number: 5.7

Polymer Sequence: MQRETVWLVEDEQGIADTLVYMLQQEGFAVEVFERGLPVLDKARKQVPDVMILDVGLPDISGFELCRQLLALHPALPVLFLTARSEEVDRLLGLEIGADDYVAKPFSPREVCARVRTLLRRVKKFSTPSPVIRIGHFELNEPAAQISWFDTPLALTRYEFLLLKTLLKSPGRVWSRQQLMDSVWEDAQDTYDRTVDTHIKTLRAKLRAINPDLSPINTHRGMGYSLRGL
Test Readout: total protein half-life in vivo
Reading Unit: h
Readout Number: 4.02

Let's switch to this sequence now.
Which total protein half-life in vivo value belongs to MNFLAHLHLAHLAESSLSGNLLADFVRGNPEESFPPDVVAGIHMHRRIDVLTDNLPEVREAREWFRSETRRVAPITLDVMWDHFLSRHWSQLSPDFPLQEFVCYAREQVMTILPDSPPRFINLNNYLWSEQWLVRYRDMDFIQNVLNGMASRRPRLDALRDSWYDLDAHYDALETRFWQFYPRMMAQASRKAL ?
2
